Attribute: melting point

Challenge: Given the compound COC[C@H]1O[C@@H](n2cnc3c(N)nc(F)nc32)[C@H](O)[C@@H]1O , write its reported melting point.
Response given: 231 to 233 °C

Continuing:
Challenge: Given the compound COC[C@H]1O[C@@H](n2cnc3c(N)nc(Cl)nc32)[C@H](O)[C@@H]1O , write its reported melting point.
Response given: 92 to 94 °C

Challenge: Given the compound C[C@H]1O[C@@H](n2cnc3c(N)nc(N)nc32)[C@H](O)[C@@H]1O , write its reported melting point.
Response given: 135 to 138 °C

Challenge: Given the compound C[C@H]1O[C@@H](n2cnc3c(N)nc(F)nc32)[C@H](O)[C@@H]1O , write its reported melting point.
Response given: 244 to 245 °C
